# Tested on: E. faecalis (CL 4877)
# Assay Comment: Zone of inhibition screen, 96 well agar array format
# Format: cell-based
# Set-up: scale not given here
# Test Context: zone of inhibition relative to 1 mg/ml stock solution of p-chlorobiphenylvancomycin
Recorded zone score, E. faecalis CL 4877 for the following compounds
Property Label: zone score, E. faecalis CL 4877

[[record]]
compound = "CC1OC(OC2C(Oc3c4cc5cc3Oc3ccc(cc3Cl)C(O)C3NC(=O)C(NC(=O)C5NC(=O)C(CC(N)=O)NC(=O)C(NC(=O)C=O)C(O)c5ccc(c(Cl)c5)O4)c4ccc(O)c(c4)-c4c(O)cc(O)cc4C(C(=O)O)NC3=O)OC(CO)C(O)C2O)CC(C)(NCc2ccc(-c3ccc(Cl)cc3)cc2)C1O (stereo not drawn) [Compound 159]"
data_value = 2

[[record]]
compound = "CC(NC(=O)OC(C)(C)C)C(=O)NCC(=O)N(C)CC(=O)NC1C(=O)NC(CC(N)=O)C(=O)NC2C(=O)NC3C(=O)NC(C(=O)NC(C(=O)O)c4cc(O)cc(O)c4-c4cc3ccc4O)C(O)c3ccc(c(Cl)c3)Oc3cc2cc(c3OC2OC(CO)C(O)C(O)C2OC2CC(C)(NCc3ccc(-c4ccc(Cl)cc4)cc3)C(O)C(C)O2)Oc2ccc(cc2Cl)C1O (stereo not drawn) [Compound 132]"
data_value = 2

[[record]]
compound = "CC(=O)NCSC(C)(C)C(N)C(=O)NC1C(=O)NC(CC(N)=O)C(=O)NC2C(=O)NC3C(=O)NC(C(=O)NC(C(=O)O)c4cc(O)cc(O)c4-c4cc3ccc4O)C(O)c3ccc(c(Cl)c3)Oc3cc2cc(c3OC2OC(CO)C(O)C(O)C2OC2CC(C)(NCc3ccc(-c4ccc(Cl)cc4)cc3)C(O)C(C)O2)Oc2ccc(cc2Cl)C1O (stereo not drawn) [Compound 46]"
data_value = 2

